- targetOrTestSystem: Xanthine dehydrogenase/oxidase (Homo sapiens, UniProt P47989)
- Sequence (P47989 whole entry): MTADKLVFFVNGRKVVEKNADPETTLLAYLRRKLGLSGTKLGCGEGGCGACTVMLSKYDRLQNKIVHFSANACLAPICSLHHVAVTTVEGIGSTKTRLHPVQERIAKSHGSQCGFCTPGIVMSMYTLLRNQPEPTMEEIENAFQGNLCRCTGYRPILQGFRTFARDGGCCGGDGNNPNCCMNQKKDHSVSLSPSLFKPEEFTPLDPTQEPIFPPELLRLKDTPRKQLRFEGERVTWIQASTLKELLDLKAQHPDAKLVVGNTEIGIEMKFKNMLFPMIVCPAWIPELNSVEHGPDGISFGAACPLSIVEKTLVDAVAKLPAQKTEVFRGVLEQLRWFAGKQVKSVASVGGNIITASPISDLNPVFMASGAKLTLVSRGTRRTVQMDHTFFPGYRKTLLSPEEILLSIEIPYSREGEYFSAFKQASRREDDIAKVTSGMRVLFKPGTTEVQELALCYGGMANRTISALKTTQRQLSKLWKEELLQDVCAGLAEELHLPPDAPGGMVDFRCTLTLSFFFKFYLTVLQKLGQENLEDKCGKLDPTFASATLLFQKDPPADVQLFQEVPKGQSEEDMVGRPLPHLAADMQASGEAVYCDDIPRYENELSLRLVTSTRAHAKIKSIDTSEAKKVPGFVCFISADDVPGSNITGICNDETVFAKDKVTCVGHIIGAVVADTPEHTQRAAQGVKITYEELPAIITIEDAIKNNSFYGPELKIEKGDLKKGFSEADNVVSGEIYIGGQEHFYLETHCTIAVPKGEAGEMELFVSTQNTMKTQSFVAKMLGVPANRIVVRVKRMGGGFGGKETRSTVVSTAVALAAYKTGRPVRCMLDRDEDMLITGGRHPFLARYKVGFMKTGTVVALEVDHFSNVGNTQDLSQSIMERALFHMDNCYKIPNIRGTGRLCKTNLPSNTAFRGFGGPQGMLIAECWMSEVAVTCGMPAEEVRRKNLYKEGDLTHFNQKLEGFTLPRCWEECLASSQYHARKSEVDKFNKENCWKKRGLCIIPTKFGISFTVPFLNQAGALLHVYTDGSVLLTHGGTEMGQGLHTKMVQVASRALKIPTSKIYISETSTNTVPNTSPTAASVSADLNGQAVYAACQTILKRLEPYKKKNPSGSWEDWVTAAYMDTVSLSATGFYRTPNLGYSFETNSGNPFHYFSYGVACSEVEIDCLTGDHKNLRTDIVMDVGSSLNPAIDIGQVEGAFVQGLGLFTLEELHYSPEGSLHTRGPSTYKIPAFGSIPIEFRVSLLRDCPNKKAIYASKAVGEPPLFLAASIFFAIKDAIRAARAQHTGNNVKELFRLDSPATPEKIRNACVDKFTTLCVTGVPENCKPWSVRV
- experimentNotes: Activity of xanthine oxidase assessed as change in absorbance per min at 40 uM in presence of xanthine
propertyMeasured: deltaA
// return a plain number; no unit text

[
  {
    "smilesNotation": "COC(=O)CNC(=O)c1ccc(-n2ncc(C#N)c2N)cc1",
    "targetOrTestSystem": "Xanthine dehydrogenase/oxidase (Homo sapiens, UniProt P47989)",
    "propertyMeasured": "deltaA",
    "recordedMeasurement": 0.09
  }
]

Query string: Any idea what deltaA was measured for `N#Cc1cnn(-c2ccc(C(=O)O)cc2)c1N` ?
Result string: 0.08

====

- targetOrTestSystem: Xanthine dehydrogenase/oxidase (Homo sapiens, UniProt P47989)
- experimentNotes: Activity of xanthine oxidase assessed as change in absorbance per min at 10 uM in presence of xanthine
propertyMeasured: deltaA
When you answer, write just the number.

[
  {
    "smilesNotation": "N#Cc1cnn(-c2ccc(C(=O)O)cc2)c1N",
    "propertyMeasured": "deltaA",
    "recordedMeasurement": 0.12
  }
]

Now consider a different molecule.
Query string: Fill in: deltaA of `COC(=O)CNC(=O)c1ccc(-n2ncc(C#N)c2N)cc1` is ___
Result string: 0.23

====

- System: SF-268
- experimentNotes: Growth inhibition of human SF268 cells after 48 hrs
- Type: functional
- reportedConditions: SF-268, 48 h
propertyMeasured: GI50

Solved cases below.
[
  {
    "compound": "COc1cccc2c1C(=O)c1c(O)c3c(c(O)c1C2=O)C[C@@](O)(C(=O)CO)C[C@@H]3O[C@H]1C[C@H](N)[C@H](O)[C@H](C)O1 [DOXORUBICIN]",
    "GI50": "0.093 µM"
  },
  {
    "compound": "COC(=O)CNC(=O)c1ccc(-n2ncc(C#N)c2N)cc1",
    "GI50": "> 150 µM"
  },
  {
    "compound": "N#Cc1ccc(-n2ncc(C#N)c2N)cc1",
    "GI50": "> 150 µM"
  },
  {
    "compound": "N#Cc1cnn(-c2ccc(Cl)cc2)c1N",
    "GI50": "> 150 µM"
  },
  {
    "compound": "CC(=O)OC[C@H]1O[C@@H](Nc2ncnc3c2cnn3-c2ccc(C(=O)O)cc2)[C@H](OC(C)=O)[C@@H](OC(C)=O)[C@@H]1OC(C)=O",
    "GI50": "> 150 µM"
  },
  {
    "compound": "COc1ccc(-n2ncc(C#N)c2N)cc1",
    "GI50": "> 150 µM"
  }
]

Query string: Entry `N#Cc1cnn(-c2ccc([N+](=O)[O-])cc2)c1N` has what GI50?
Result string: 135 µM

Query string: Consider the compound shown here: `COc1ccc(-n2ncc3c(N)ncnc32)cc1` What is its recorded GI50?
Result string: > 150 µM

Query string: Data request, read-out GI50, for `Cc1ccc(-n2ncc(C#N)c2N)cc1`
Result string: > 150 µM

Query string: Find the recorded GI50 belonging to `N#Cc1cnn(-c2ccc(C(F)(F)F)cc2)c1N` and report it.
Result string: > 150 µM

Query string: Value lookup for GI50; key = `COC(=O)CNC(=O)c1ccc(-n2ncc3c(N)ncnc32)cc1`
Result string: > 150 µM

====

- targetOrTestSystem: Xanthine dehydrogenase/oxidase (Homo sapiens, UniProt P47989)
- experimentNotes: Inhibition of xanthine oxidase
propertyMeasured: pIC50
Quick note: pIC50 values are minus log10 of concentrations in mol/L.

[
  {
    "smilesNotation": "Nc1ncnc2c1cnn2-c1ccc(C(F)(F)F)cc1",
    "pIC50": 6.74
  }
]

Then there is this molecule:
Query string: Could you share which pIC50 value was measured for `Cc1ccc(-n2ncc3c(N)ncnc32)cc1` ?
Result string: 4.76

====

Recorded IC50, one value per entry.
- targetOrTestSystem: Xanthine dehydrogenase/oxidase (Homo sapiens)

[
  {
    "smilesNotation": "N#Cc1cnn(-c2ccc([N+](=O)[O-])cc2)c1N",
    "recordedMeasurement": "> 100 µM"
  }
]

Query string: // returns reported IC50 for input `N#Cc1cnn(-c2ccc(Cl)cc2)c1N`
Result string: > 100 µM

Query string: Fill in: IC50 of `Cc1ccc(-n2ncc(C#N)c2N)cc1` is ___
Result string: > 100 µM
